// provenance: paper PMC12212125

Measured enrichment by item
B1: Arabidopsis thaliana cryptochrome 2 (CRY2, UniProt Q96524), residues 1-535 fused after the Gal4 DNA-binding domain (Gal4BD-CRY2(535)); mutagenized window 321-412, Q96524 (parent)
chain: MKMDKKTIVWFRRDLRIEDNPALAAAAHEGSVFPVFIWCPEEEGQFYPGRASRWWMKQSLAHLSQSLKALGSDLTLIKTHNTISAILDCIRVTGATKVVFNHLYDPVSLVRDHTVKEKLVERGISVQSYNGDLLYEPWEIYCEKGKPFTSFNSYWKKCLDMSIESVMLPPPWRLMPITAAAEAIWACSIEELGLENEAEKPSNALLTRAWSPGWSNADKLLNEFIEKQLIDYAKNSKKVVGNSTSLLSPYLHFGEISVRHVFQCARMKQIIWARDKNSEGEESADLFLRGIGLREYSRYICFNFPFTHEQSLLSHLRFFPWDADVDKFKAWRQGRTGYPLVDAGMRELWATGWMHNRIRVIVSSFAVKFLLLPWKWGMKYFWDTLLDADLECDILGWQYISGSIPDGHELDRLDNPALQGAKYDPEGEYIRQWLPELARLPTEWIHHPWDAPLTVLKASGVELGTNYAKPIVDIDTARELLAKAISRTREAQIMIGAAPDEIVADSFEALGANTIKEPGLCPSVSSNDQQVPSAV

variants of: B1; assay: yeast two-hybrid growth selection (MaV203; Gal4BD-CRY2(1-535) library x Gal4AD-CIB1; URA3 reporter on SC -Trp/-Leu/-Ura) in the dark, deep sequencing before and after selection, Enrich2 scoring; three independent screens (one at 48 h, two …); conditions: with CIB1 (CRYPTOCHROME-INTERACTING BASIC-HELIX-LOOP-HELIX 1), dark (no blue light), screens 1, 3 and 4, Svar > 0 = enriched under dark selection for CRY2-CIB1 two-hybrid growth (URA3 reporter), < 0 = depleted, relative to wild type (whose scores are 0). 'The Enrich2 software calculates, parent: 0, not an affinity, scale: Enrich2 score, numbering: uniprot, sequence starts at 1
Just the number.

Example results:
- Variant: "D326G"
  Observed: 0.327
- Variant: "Y399S"
  Observed: 2.82
- Variant: "L340W"
  Observed: -1.48
- Variant: "K375T"
  Observed: -0.845
- Variant: "A350S"
  Observed: 0.303

Here is the next item to consider.
I'd like to know its enrichment. The variant in question is A350V -0.0426
